compounds and their reported pIC50
- Study Target: Elastase from human neutrophils (Homo sapiens, UniProt P08246)
- Sequence (P08246 30-267): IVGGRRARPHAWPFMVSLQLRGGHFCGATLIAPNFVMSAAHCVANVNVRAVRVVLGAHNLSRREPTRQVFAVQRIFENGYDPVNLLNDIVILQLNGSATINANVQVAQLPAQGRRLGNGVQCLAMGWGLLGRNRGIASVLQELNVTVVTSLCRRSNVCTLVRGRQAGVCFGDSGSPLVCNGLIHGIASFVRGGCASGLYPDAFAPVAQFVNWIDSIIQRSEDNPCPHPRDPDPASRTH
- Test Name: Enzymatic assay, elastase
- Protocol Conditions: Elastase IC50
pIC50: −log10 of the molar value. Where a SMILES comes first, the peptide text is derived from it.
Parameter: pIC50

* CC[C@H](C)[C@@H]1NC(=O)[C@@H]2CCCN2C(=O)[C@@H]2CCCN2C(=O)[C@H](CC(=O)O)NC(=O)[C@H](CO)NC(=O)[C@H](CCCCN)NC(=O)[C@H]([C@@H](C)O)NC(=O)[C@@H]2CSSC[C@H](NC1=O)C(=O)N[C@@H](CO)C(=O)N1CCC[C@@H]1C(=O)N1CCC[C@H]1C(=O)N[C@@H](Cc1ccccc1)C(=O)N2 [Ex. 4] (HELM PEPTIDE1{F.C.T.K.S.D.P.P.I.C.S.[dP].P}$PEPTIDE1,PEPTIDE1,2:R3-10:R3|PEPTIDE1,PEPTIDE1,1:R1-13:R2$$$V2.0) | < 4.00
* CCCC[C@@H]1NC(=O)[C@@H]2CCCN2C(=O)[C@H]2CCCN2C(=O)[C@H](Cc2ccc(O)cc2)NC(=O)[C@H](CCC(N)=O)NC(=O)[C@H](CCC(N)=O)NC(=O)[C@@H]2CCCN2C(=O)[C@@H]2CCCN2C(=O)[C@H](CC2CCCCC2)NC(=O)[C@H](CO)NC(=O)[C@H](C)NC(=O)[C@H]([C@@H](C)O)NC(=O)[C@H]([C@@H](C)O)NC1=O [Ex. 139] (HELM PEPTIDE1{[Nle].T.T.A.S.[Cha].P.P.Q.Q.Y.[dP].P}$PEPTIDE1,PEPTIDE1,1:R1-13:R2$$$V2.0) | 7.74
* CC[C@H](C)[C@@H]1NC(=O)[C@@H]2CCCN2C(=O)[C@@H]2CCCN2C(=O)[C@H](CC(=O)O)NC(=O)[C@H](CO)NC(=O)[C@H](CCCCN)NC(=O)[C@H]([C@@H](C)O)NC(=O)[C@@H]2CSSC[C@H](NC1=O)C(=O)N[C@@H]([C@@H](C)O)C(=O)N1CCC[C@@H]1C(=O)N1CCC[C@H]1C(=O)N[C@@H](CCc1ccccc1)C(=O)N2 [Ex. 28] (HELM PEPTIDE1{[O=C([C@H](CCc1ccccc1)N[*:1])[*:2]].C.T.K.S.D.P.P.I.C.T.[dP].P}$PEPTIDE1,PEPTIDE1,2:R3-10:R3|PEPTIDE1,PEPTIDE1,1:R1-13:R2$$$V2.0) | < 4.00
* CC[C@H](C)[C@@H]1NC(=O)[C@H](C)NC(=O)[C@@H]2CCCN2C(=O)[C@H](CC(=O)O)NC(=O)[C@H](CO)NC(=O)[C@H](CCCCN)NC(=O)[C@H]([C@@H](C)O)NC(=O)[C@@H]2CSSC[C@H](NC1=O)C(=O)N[C@@H](CCCNC(=N)N)C(=O)N1CCC[C@@H]1C(=O)N1CCC[C@H]1C(=O)N[C@@H]([C@@H](C)CC)C(=O)N2 [Ex. 14] (HELM PEPTIDE1{I.C.T.K.S.D.P.A.I.C.R.[dP].P}$PEPTIDE1,PEPTIDE1,2:R3-10:R3|PEPTIDE1,PEPTIDE1,1:R1-13:R2$$$V2.0) | < 4.00

* * *

Where a SMILES comes first, the peptide text is derived from it.
# Chymase at 100 μM % measurements, system: Chymase, from human skin (Homo sapiens)
# Sequence (P23946 22-247): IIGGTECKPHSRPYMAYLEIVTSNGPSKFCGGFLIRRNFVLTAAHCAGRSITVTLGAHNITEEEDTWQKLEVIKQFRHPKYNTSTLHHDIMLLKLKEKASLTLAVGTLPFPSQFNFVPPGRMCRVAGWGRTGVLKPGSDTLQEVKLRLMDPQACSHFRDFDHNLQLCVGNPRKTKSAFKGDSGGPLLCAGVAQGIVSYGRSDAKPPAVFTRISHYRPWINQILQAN
Parameter: Chymase at 100 μM % (%)

• CC[C@H](C)[C@@H]1NC(=O)[C@@H]2CCCN2C(=O)[C@@H]2CCCN2C(=O)[C@H](CC(=O)O)NC(=O)[C@H](CO)NC(=O)[C@H](CCCCN)NC(=O)[C@H]([C@@H](C)O)NC(=O)[C@@H]2CSSC[C@H](NC1=O)C(=O)N[C@@H](CCCNC(=N)N)C(=O)N1CCC[C@@H]1C(=O)N1CCC[C@H]1C(=O)N[C@@H](C1CCCCC1)C(=O)N2 [Ex. 12] (HELM PEPTIDE1{[O=C([C@@H](N[*:1])C1CCCCC1)[*:2]].C.T.K.S.D.P.P.I.C.R.[dP].P}$PEPTIDE1,PEPTIDE1,2:R3-10:R3|PEPTIDE1,PEPTIDE1,1:R1-13:R2$$$V2.0) = 12
• CC[C@H](C)[C@@H]1NC(=O)[C@@H]2CCCN2C(=O)[C@@H]2CCCN2C(=O)[C@H](CCC(=O)O)NC(=O)[C@H](CO)NC(=O)[C@H](CCCCN)NC(=O)[C@H]([C@@H](C)O)NC(=O)[C@@H]2CSSC[C@H](NC1=O)C(=O)N[C@@H](CO)C(=O)N1CCC[C@@H]1C(=O)N1CCC[C@H]1C(=O)N[C@@H](Cc1ccccc1)C(=O)N2 [Ex. 21] (HELM PEPTIDE1{F.C.T.K.S.E.P.P.I.C.S.[dP].P}$PEPTIDE1,PEPTIDE1,2:R3-10:R3|PEPTIDE1,PEPTIDE1,1:R1-13:R2$$$V2.0) = 5
• CCCC[C@@H]1NC(=O)[C@@H]2CCCN2C(=O)[C@H]2CCCN2C(=O)[C@H](Cc2ccc(O)cc2)NC(=O)[C@H]([C@@H](C)O)NC(=O)[C@H](CCC(N)=O)NC(=O)[C@@H]2CCCN2C(=O)[C@@H]2CCCN2C(=O)[C@H]([C@@H](C)CC)NC(=O)[C@H](CO)NC(=O)[C@H](C)NC(=O)[C@H]([C@@H](C)O)NC(=O)[C@H](CCC(N)=O)NC1=O [Ex. 109] (HELM PEPTIDE1{[Nle].Q.T.A.S.I.P.P.Q.T.Y.[dP].P}$PEPTIDE1,PEPTIDE1,1:R1-13:R2$$$V2.0) = 0.1

Recorded values, source patent US8658604B2.
